TESTED SYSTEM: T1, recombinant LILRA3 (human, UniProt Q8N6C8 24-439)
T1 construct: whole entry named; also called LILRA3 ECD; LILA3
T1 sequence (Q8N6C8 24-439 limits assumed): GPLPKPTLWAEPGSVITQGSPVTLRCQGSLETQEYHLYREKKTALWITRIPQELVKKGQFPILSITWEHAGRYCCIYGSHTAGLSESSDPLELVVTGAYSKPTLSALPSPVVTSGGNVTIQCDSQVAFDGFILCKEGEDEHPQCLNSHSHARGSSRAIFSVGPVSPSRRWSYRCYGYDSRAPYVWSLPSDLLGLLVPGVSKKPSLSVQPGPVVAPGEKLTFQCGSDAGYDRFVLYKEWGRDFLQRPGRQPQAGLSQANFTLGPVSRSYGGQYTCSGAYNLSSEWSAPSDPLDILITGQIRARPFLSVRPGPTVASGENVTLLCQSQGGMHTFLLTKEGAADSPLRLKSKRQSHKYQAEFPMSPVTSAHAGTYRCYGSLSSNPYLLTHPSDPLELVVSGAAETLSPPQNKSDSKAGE
TEST SUMMARY: BLI, IgG on AHC sensor, ECD in solution
Measured log10 Kd, listed per entry.
QUANTITY NAME: log10 Kd (log10 of the value in nM)

binder="A-039 (antibody, V domains shown, tested as IgG) VH: QVQLVQSGAEVKKPGSSVKVSCKASGGTFSSYAISWVRQAPGQGLEWMGGIIPIFGTANYAQKFQGRVTITADESTSTAYMELSSLRSEDTAVYYCAKGPPVGSSSWYTDWYFDLWGRGTLVTVSS VL: SYELTQPPSVSVSPGQTASITCSGDKLGDKYASWYQQKPGQSPVLVIYQDSKRPSGIPERFSGSNSGNTATLTISGTQAEDEADYYCALYGGGHTVVFGGGTKLTVL" quantity_name="log10 Kd" measurement=3.19
binder="A-013 (antibody, V domains shown, tested as IgG) VH: QVQLVQSGAEVKKPGSSVKVSCKASGGTFRQEAFSWVRQAPGQGLEWMGSIIPIFYSSNYAQKFQGRVTITADESTSTAYMELSSLRSEDTAVYYCAKDLGTYSSGWPYYYGMDVWGQGTTVTVSS VL: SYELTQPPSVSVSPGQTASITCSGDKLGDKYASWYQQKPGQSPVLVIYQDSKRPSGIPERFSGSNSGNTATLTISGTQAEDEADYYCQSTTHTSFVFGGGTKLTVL" quantity_name="log10 Kd" measurement=2.79
binder="A-019 (antibody, V domains shown, tested as IgG) VH: QVQLVQSGAEVKKPGSSVKVSCKASGYTFTTSAMNWVRQAPGQGLEWMGGIIPYFSTANYAPKFQGRVTITADESTSTAYMELSSLRSEDTAVYYCAKDLGTYSSGWPYYYGMDVWGQGTTVTVSS VL: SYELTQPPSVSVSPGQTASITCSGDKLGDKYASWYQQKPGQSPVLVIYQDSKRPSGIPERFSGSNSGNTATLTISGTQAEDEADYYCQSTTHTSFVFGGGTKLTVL" quantity_name="log10 Kd" measurement=2.16
binder="A-047 (antibody, V domains shown, tested as IgG) VH: QVQLVQSGAEVKKPGSSVKVSCKASGYTFSKSAMSWVRQAPGQGLEWMGGIVPKFHTSVYAQKFQGRVTITADESTSTAYMELSSLRSEDTAVYYCAKGPPVGSSSWYTDWYFDLWGRGTLVTVSS VL: SYELTQPPSVSVSPGQTASITCSGDKLGDKYASWYQQKPGQSPVLVIYQDSKRPSGIPERFSGSNSGNTATLTISGTQAEDEADYYCSLYGAGHTVVFGGGTKLTVL" quantity_name="log10 Kd" measurement=2.50
binder="A-020 (antibody, V domains shown, tested as IgG) VH: QVQLVQSGAEVKKPGSSVKVSCKASGGTFQTYAISWVRQAPGQGLEWMGSIIPKFYQSNYAYKFQGRVTITADESTSTAYMELSSLRSEDTAVYYCAKDLGTYSSGWPYYYGMDVWGQGTTVTVSS VL: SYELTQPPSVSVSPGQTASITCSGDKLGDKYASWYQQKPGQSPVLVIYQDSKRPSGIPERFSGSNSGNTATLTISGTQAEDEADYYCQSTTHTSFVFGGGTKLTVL" quantity_name="log10 Kd" measurement=2.59
binder="A-040 (antibody, V domains shown, tested as IgG) VH: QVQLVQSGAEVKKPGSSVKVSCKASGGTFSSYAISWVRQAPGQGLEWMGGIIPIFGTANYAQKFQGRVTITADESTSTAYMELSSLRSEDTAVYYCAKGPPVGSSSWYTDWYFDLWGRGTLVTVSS VL: SYELTQPPSVSVSPGQTASITCSGDKLGDKYASWYQQKPGQSPVLVIYQDSKRPSGIPERFSGSNSGNTATLTISGTQAEDEADYYCSLYGPAHTGVFGGGTKLTVL" quantity_name="log10 Kd" measurement=2.54
